Parameter switch fluorescence ratio: see the listing below.
# System: ATP;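 also: ATP exposure 15 min at 22 °C before imaging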
# assay_comment: switch fluorescence ratio, 500 uM ATP over buffer (Cy3 cluster intensity, sum of 5 cycles each) (fold (ratio)); higher = stronger signal-on switching upon ATP binding; sequences stand for … in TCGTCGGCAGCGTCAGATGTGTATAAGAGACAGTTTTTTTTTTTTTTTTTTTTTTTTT…TC
# condition_notes: aptamer strand: ATP DNA aptamer (quencher-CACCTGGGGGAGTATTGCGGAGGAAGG + anchor), 100 nM annealed; ATP concentration: 500 uM
measured_parameter: switch fluorescence ratio

>  <chain>
CGTAATAGAT

>  <observed_measurement>
1.02

$$$$
>  <chain>
TATTTAATCA

>  <observed_measurement>
1.01

$$$$
>  <chain>
TTTTCTACAG

>  <observed_measurement>
1

$$$$
>  <chain>
ATGGATAGCG

>  <observed_measurement>
0.968

$$$$
>  <chain>
TGACAGTATC

>  <observed_measurement>
1.08

$$$$
>  <chain>
TAATTGATGT

>  <observed_measurement>
1.01

$$$$
>  <chain>
TAGAGTTGGG

>  <observed_measurement>
0.986

$$$$
>  <chain>
GGTCGGGGGT

>  <observed_measurement>
1.03

$$$$
>  <chain>
CTAAAAGGGA

>  <observed_measurement>
0.95

$$$$
>  <chain>
TGTGCAGCG

>  <observed_measurement>
1.02

$$$$
>  <chain>
TGGAAGCGTT

>  <observed_measurement>
0.98

$$$$
>  <chain>
GGTGGTTGTT

>  <observed_measurement>
1.01

$$$$
>  <chain>
TGGAGTGTGG

>  <observed_measurement>
0.912

$$$$
>  <chain>
AGAGTGGGTG

>  <observed_measurement>
0.978

$$$$
>  <chain>
TAATTAATGG

>  <observed_measurement>
1

$$$$
>  <chain>
TGAATGAGTT

>  <observed_measurement>
1.02

$$$$
>  <chain>
CAGTTGCGAG

>  <observed_measurement>
0.983

$$$$
>  <chain>
GCTTTATGTA

>  <observed_measurement>
0.975

$$$$
>  <chain>
ACTAAACGAG

>  <observed_measurement>
1.06

$$$$
>  <chain>
AGTACGTTGG

>  <observed_measurement>
0.966

$$$$
>  <chain>
TGGTGGCTTA

>  <observed_measurement>
0.983

$$$$

---

Measured switch fluorescence ratio by item
# System: ATP;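 also: ATP exposure 15 min at 22 °C before imaging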
# assay_comment: switch fluorescence ratio, 500 uM ATP over buffer (Cy3 cluster intensity, sum of 5 cycles each) (fold (ratio)); higher = stronger signal-on switching upon ATP binding; sequences stand for … in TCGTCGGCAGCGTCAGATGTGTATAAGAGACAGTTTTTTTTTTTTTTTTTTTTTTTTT…TC
# condition_notes: aptamer strand: ATP DNA aptamer (quencher-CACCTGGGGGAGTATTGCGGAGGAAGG + anchor), 100 nM annealed; ATP concentration: 500 uM

>  <chain>
TTGACCAAAA

>  <switch fluorescence ratio>
1.03

$$$$
>  <chain>
CATATGAGGG

>  <switch fluorescence ratio>
0.991

$$$$
>  <chain>
GTACTTCATC

>  <switch fluorescence ratio>
1.06

$$$$
>  <chain>
AATTGCATAA

>  <switch fluorescence ratio>
0.996

$$$$
>  <chain>
GCATGCGCGC

>  <switch fluorescence ratio>
0.984

$$$$
>  <chain>
AGCTTTTTTG

>  <switch fluorescence ratio>
1.02

$$$$
>  <chain>
TCAGTTAATT

>  <switch fluorescence ratio>
1.01

$$$$
>  <chain>
CTGCTCACAC

>  <switch fluorescence ratio>
1.22

$$$$
>  <chain>
ATAACACTTC

>  <switch fluorescence ratio>
1.03

$$$$
>  <chain>
AGGCTAGTGG

>  <switch fluorescence ratio>
0.993

$$$$
>  <chain>
ATGCTTCTTT

>  <switch fluorescence ratio>
0.985

$$$$
>  <chain>
ATTCAAGTCA

>  <switch fluorescence ratio>
1.03

$$$$
>  <chain>
TTTAATTACT

>  <switch fluorescence ratio>
1.04

$$$$
>  <chain>
GGTTAAGAGG

>  <switch fluorescence ratio>
1.02

$$$$
>  <chain>
GGGGACGGTA

>  <switch fluorescence ratio>
1.03

$$$$
>  <chain>
ACAGGTATTA

>  <switch fluorescence ratio>
0.996

$$$$
>  <chain>
GGGGGCACGA

>  <switch fluorescence ratio>
1.07

$$$$
>  <chain>
TTTTTGATAT

>  <switch fluorescence ratio>
1.05

$$$$
>  <chain>
GGAGCTAGGG

>  <switch fluorescence ratio>
1.06

$$$$
>  <chain>
ATACGCTGGT

>  <switch fluorescence ratio>
0.999

$$$$
>  <chain>
AATAATGCGT

>  <switch fluorescence ratio>
0.994

$$$$
>  <chain>
CGGTTTTGGC

>  <switch fluorescence ratio>
0.998

$$$$
>  <chain>
TTGCCTAACT

>  <switch fluorescence ratio>
1.04

$$$$
>  <chain>
GATAACGAAG

>  <switch fluorescence ratio>
1.01

$$$$
>  <chain>
ACACTAGGTT

>  <switch fluorescence ratio>
1.06

$$$$
>  <chain>
ATCAGGGGTT

>  <switch fluorescence ratio>
1.34

$$$$
>  <chain>
AAAGGCCTTA

>  <switch fluorescence ratio>
1.01

$$$$
>  <chain>
AAGAGGGTAT

>  <switch fluorescence ratio>
0.984

$$$$
>  <chain>
GGGCTGTAAG

>  <switch fluorescence ratio>
0.997

$$$$
>  <chain>
TTGGGATTGT

>  <switch fluorescence ratio>
0.989

$$$$
>  <chain>
TAAAATGGGA

>  <switch fluorescence ratio>
0.981

$$$$
>  <chain>
GGATATTTGG

>  <switch fluorescence ratio>
0.992

$$$$
>  <chain>
AGGTAAGGGT

>  <switch fluorescence ratio>
0.974

$$$$
>  <chain>
ATTAGTAGGT

>  <switch fluorescence ratio>
0.976

$$$$
>  <chain>
GGGACCGAAT

>  <switch fluorescence ratio>
1

$$$$
>  <chain>
ACATGTTGTT

>  <switch fluorescence ratio>
0.993

$$$$
>  <chain>
ACACCCTTGG

>  <switch fluorescence ratio>
1.08

$$$$
>  <chain>
GGGTTTAATA

>  <switch fluorescence ratio>
0.996

$$$$
>  <chain>
TTATGAGCGG

>  <switch fluorescence ratio>
1.02

$$$$
>  <chain>
CGCTCGTGCG

>  <switch fluorescence ratio>
1

$$$$
>  <chain>
AGATACTGCA

>  <switch fluorescence ratio>
1.05

$$$$
>  <chain>
GAAGGTGATC

>  <switch fluorescence ratio>
1.01

$$$$
>  <chain>
GATTTTTAAA

>  <switch fluorescence ratio>
1.02

$$$$
>  <chain>
GGAAATTTGT

>  <switch fluorescence ratio>
1.01

$$$$
>  <chain>
TTTTTTCTTG

>  <switch fluorescence ratio>
1.02

$$$$
>  <chain>
AATTTCGGGG

>  <switch fluorescence ratio>
0.999

$$$$
>  <chain>
ACTTGAAAAT

>  <switch fluorescence ratio>
1

$$$$
>  <chain>
GGTGGGATCA

>  <switch fluorescence ratio>
1.09

$$$$
>  <chain>
CACTGGTGGC

>  <switch fluorescence ratio>
1.06

$$$$
>  <chain>
TAGTTGTTTA

>  <switch fluorescence ratio>
0.985

$$$$
>  <chain>
TTTTAGGAGA

>  <switch fluorescence ratio>
1.02

$$$$
>  <chain>
TTTGGTTTAG

>  <switch fluorescence ratio>
1

$$$$
>  <chain>
GATTAGTGTT

>  <switch fluorescence ratio>
1.01

$$$$
>  <chain>
ACGCTTACTA

>  <switch fluorescence ratio>
1.44

$$$$
>  <chain>
AGTTTGCTAG

>  <switch fluorescence ratio>
0.994

$$$$
>  <chain>
GTAAGTACTG

>  <switch fluorescence ratio>
1.36

$$$$
>  <chain>
AGTAGAGAAT

>  <switch fluorescence ratio>
1.04

$$$$
>  <chain>
TACATACTCT

>  <switch fluorescence ratio>
1.29

$$$$
>  <chain>
TCCGTTGCGG

>  <switch fluorescence ratio>
1.03

$$$$
>  <chain>
TAAGACGGGG

>  <switch fluorescence ratio>
1.01

$$$$
>  <chain>
TTTAGGTTGT

>  <switch fluorescence ratio>
0.998

$$$$
>  <chain>
CTATGTGGTG

>  <switch fluorescence ratio>
1.02

$$$$
>  <chain>
CAAGTTAATT

>  <switch fluorescence ratio>
0.987

$$$$
>  <chain>
AGGAAGAACG

>  <switch fluorescence ratio>
1.04

$$$$
>  <chain>
GCAGTTGAGT

>  <switch fluorescence ratio>
1.01

$$$$
>  <chain>
GGAAATGGCG

>  <switch fluorescence ratio>
0.981

$$$$
>  <chain>
GGTAAAGGGT

>  <switch fluorescence ratio>
0.991

$$$$
>  <chain>
CTTTGGGGTT

>  <switch fluorescence ratio>
1.01

$$$$
>  <chain>
GTTTGTGGTA

>  <switch fluorescence ratio>
0.978

$$$$
>  <chain>
ATATGGAATT

>  <switch fluorescence ratio>
0.977

$$$$
>  <chain>
TCTAGCCGGT

>  <switch fluorescence ratio>
0.988

$$$$
>  <chain>
TTTGAAAGGC

>  <switch fluorescence ratio>
1.76

$$$$
>  <chain>
TCGGTTCCCG

>  <switch fluorescence ratio>
0.981

$$$$
>  <chain>
GTGATTCAGG

>  <switch fluorescence ratio>
0.989

$$$$
>  <chain>
AAGAAAGGTC

>  <switch fluorescence ratio>
0.994

$$$$
>  <chain>
AGGTAACTGT

>  <switch fluorescence ratio>
1.01

$$$$
>  <chain>
GCTTGTGTGA

>  <switch fluorescence ratio>
0.999

$$$$
>  <chain>
AAATGGGGGG

>  <switch fluorescence ratio>
0.974

$$$$
>  <chain>
TGGGACAGCG

>  <switch fluorescence ratio>
0.957

$$$$
>  <chain>
AATGCGTGGC

>  <switch fluorescence ratio>
1.04

$$$$
>  <chain>
GGGGGGAAGG

>  <switch fluorescence ratio>
1.01

$$$$
>  <chain>
GGGTTGTCGC

>  <switch fluorescence ratio>
1.01

$$$$
>  <chain>
AGACAAAAAT

>  <switch fluorescence ratio>
1.03

$$$$
>  <chain>
AGTGGAGACG

>  <switch fluorescence ratio>
1.03

$$$$
>  <chain>
ATTTCAGCTG

>  <switch fluorescence ratio>
0.982

$$$$
>  <chain>
GGTGGATTTG

>  <switch fluorescence ratio>
0.981

$$$$
